- ASSAY: qHTS assay for cell viability of HEK293 cells (AID 743288); also: potency is read from the fitted curve at half-maximal effect; nearly all actives have a fitted effect of over 50% in size
- COND: ATP luminescence (CellTiter-Glo), 18 h
Results filed as inconclusive are left out. Active and inactive are the calls of the source. Calls follow the shape of the dose curve; as a rule, active = well fitted cell-killing curve with a large enough effect; inconclusive = small, poorly fitted or top-dose-only effect, or effect the other way; inactive = flat fitted curve, though single readings scatter.
MEASURED_METRIC: Potency

Reference set, count: 3
Nc1c(N=Nc2ccc(S(=O)(=O)CCOS(=O)(=O)O)cc2)c(S(=O)(=O)O)cc2cc(S(=O)(=O)O)c(N=Nc3ccc(S(=O)(=O)CCOS(=O)(=O)O)cc3)c(O)c12    35.5 µM (active)
O=S(=O)(O)c1ccc(N=Nc2cc(S(=O)(=O)O)c3ccccc3c2O)c2ccccc12    44.7 µM (active)
CC[C@H](C)C1O[C@]2(C=C[C@@H]1C)C[C@@H]1C[C@@H](C/C=C(\C)[C@@H](O[C@H]3C[C@H](OC)[C@@H](O[C@H]4C[C@H](OC)[C@H](NC(C)=O)[C@H](C)O4)[C@H](C)O3)[C@@H](C)/C=C/C=C3\CO[C@@H]4[C@H](O)C(C)=C[C@@H](C(=O)O1)[C@]34O)O2 (some centres undefined)    44.7 µM (active)

Would you kindly look at the next entry?
Challenge: Would you mind telling me what Potency value was observed for C=CC(=O)OCCOCC(CC)(COCCOC(=O)C=C)COCCOC(=O)C=C ?
Response given: 39.8 µM (active)

====

- TARGET_OR_SYSTEM: Cytochrome P450 3A4 (Homo sapiens) (UniProt P08684)
- Sequence (P08684 whole entry, looked up): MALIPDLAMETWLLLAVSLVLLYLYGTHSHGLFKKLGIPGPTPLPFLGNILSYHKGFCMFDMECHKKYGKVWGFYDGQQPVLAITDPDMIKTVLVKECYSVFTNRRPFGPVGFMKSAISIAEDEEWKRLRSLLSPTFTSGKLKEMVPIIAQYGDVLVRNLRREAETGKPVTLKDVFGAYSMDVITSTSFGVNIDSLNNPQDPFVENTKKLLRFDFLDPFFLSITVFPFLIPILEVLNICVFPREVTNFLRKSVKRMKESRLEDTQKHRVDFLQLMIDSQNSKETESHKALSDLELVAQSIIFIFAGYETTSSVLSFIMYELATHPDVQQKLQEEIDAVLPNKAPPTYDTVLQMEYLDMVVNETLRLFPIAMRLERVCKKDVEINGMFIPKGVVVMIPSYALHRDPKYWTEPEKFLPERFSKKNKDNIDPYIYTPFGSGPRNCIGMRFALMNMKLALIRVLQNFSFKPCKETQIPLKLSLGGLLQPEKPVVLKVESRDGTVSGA
- ASSAY: qHTS Assay for Activators of Cytochrome P450 3A4 (AID 885); also: nearly all actives have a fitted effect of over 65% in size
- COND: recombinant CYP3A4, Luciferin-PPXE luminescence, 60 min; series mostly up to 57.1 µM
Calls of active or inactive are those of the source. Calls come from the whole dose curve; as a rule, active = well fitted activation curve with a large enough effect; inconclusive = small, poorly fitted or top-dose-only effect; inactive = no such curve, though single readings can be large or run the other way.
MEASURED_METRIC: activity change, positive = activation

Oc1ccc2c(c1)OCC1c3cc4c(cc3OC21)OCO4 (stereo not given)    inactive
O=c1c2cc(O)c(O)cc2oc2cc(O)c(C3OC(CO)C(O)C(O)C3O)c(O)c12 (stereo not given)    inactive
c1ccc(C2[C@H]3CN(CC4CCCCC4)[C@H](c4ccccc4)C34CC2(c2ccccc2)C4)cc1 (stereo not given in full)    inactive
COC(=O)C/C=C\[C@@H](C)[C@@H](/C=N\OCC[C@H]1C=C[C@H](OC(C)=O)[C@@H](COC(C)=O)O1)NS(=O)(=O)c1ccc(C)cc1    -95.4% [at 11.4 µM] (inactive)
C[C@@H]1C=C[C@](Cc2ccccc2)(C(=O)NCCN2CCOCC2)N1C(=O)c1ccccc1    inactive

Challenge: Field: activity change, positive = activation (Cytochrome P450 3A4 (Homo sapiens) (UniProt P08684)). Entry: CO[C@H]1COC(=O)CCC[C@@H](C)[C@H](OC)COC(=O)[C@H]2CCCN2C(=O)C/C=C\[C@@H]1C
Response given: -30.7% [at 11.4 µM] (inactive)

Challenge: Proceed to O=C1[C@H]2[C@H]3[C@H](O)[C@H](O)C/C(=N/OC[C@@H](O)COCc4ccco4)[C@@H]3CC[C@@H]2C(=O)N1c1cccc(Oc2ccccc2)c1
Response given: -40.2% [at 11.4 µM] (inactive)

Challenge: Proceed to CCCCCC(=O)O[C@@]1(C(C)=O)CCC2C3CCC4=CC(=O)CC[C@@]4(C)C3CC[C@]21C (stereo not given in full)
Response given: inactive

Challenge: Proceed to CCCCCCN(C(=O)CCCCCN1C(=O)NC(c2ccc([N+](=O)[O-])cc2)C(C(=O)OCc2ccccc2)=C1C)C(C(=O)NCCCC)c1ccc(OCC(=O)OC)c(C(=O)OC)c1 (stereo not given)
Response given: inactive

Challenge: Proceed to COC(=O)c1ccc(C(NC(=O)OCc2ccccc2)/C(=C/[C@@H](C)C(=O)NCc2nc3ccccc3n2C)c2cccnc2)cc1 (stereo not given in full)
Response given: inactive

Challenge: Proceed to C[C@@H]1/C=C\CC(=O)OC[C@H]2O[C@@H](C=C[C@@H]2O)[C@H](C)/C=C\CC(=O)OC1
Response given: -35.6% [at 11.4 µM] (inactive)

Challenge: Proceed to COc1ccc(OC2C=CC(c3ccccc3)OC2CO)c(C(C)=O)c1 (stereo not given)
Response given: -57.7% [at 11.4 µM] (inactive)

Challenge: Proceed to NC(N)=NCCC[C@H](NC(=O)CC1(CC(=O)N2CCN(C3c4ccccc4NC(=O)c4ccccc43)CC2)CCCC1)C(=O)NCCn1c(=O)n(-c2ccccc2)n(-c2ccccc2)c1=O (stereo not given in full)
Response given: inactive

Values compiled from PubChem BioAssay (NCATS).
